Please provide measured TGI for the entries that follow.
tested on: 786-0 renal; experiment: NCI tumour cell line growth inhibition, 48 h

INSERT INTO results (molecule, experimental_system, result) VALUES
  ('O=C(CCn1ccnc1[N+](=O)[O-])NCCCn1ccnc1[N+](=O)[O-]', '786-0 renal', '> 100 µM'),
  ('CCC[CH2][Sn]([CH2]CCC)([O]C(=O)c1ccc(OC)c(OC)c1OC)[O][Sn]([CH2]CCC)([CH2]CCC)[O]C(=O)c1ccc(OC)c(OC)c1OC', '786-0 renal', '0.456 µM'),
  ('N=c1c2c(-c3ccccc3)c(-c3ccccc3)n(Cc3ccccc3)c2ncn1C1CCC(O)CC1 (centres undefined)', '786-0 renal', '17.3 µM'),
  ('O=P(O)(O)C(N=C(Nc1ccccc1)Nc1ccccc1)P(=O)(O)O', '786-0 renal', '> 100 µM'),
  ('Cc1ccccc1C(=O)c1cc(O)ccc1O', '786-0 renal', '> 100 µM'),
  ('CN1CCC(=O)/C(=C/c2ccccc2)C1', '786-0 renal', '25.2 µM'),
  ('CCOC(=O)c1c(-c2ccc(O)c(OC)c2)c(C#N)c(=S)n(C2OC(CO)C(O)C(O)C2O)c1-c1ccccc1 (centres undefined)', '786-0 renal', '> 100 µM'),
  ('Cc1c2cc[n+](C)c(C)c2cc2c1[nH]c1ccccc12', '786-0 renal', '> 39.5 µM'),
  ('CCN(CC)CCNc1nc(N)c(C#N)c(C#N)c1C#N', '786-0 renal', '> 10 µM'),
  ('C=CCC1(c2ccc(OC)cc2)C=CC(=O)CC1 (centres undefined)', '786-0 renal', '> 100 µM');

Each molecule below has a reported value. Please supply its TGI.
1. COc1ccc(C2c3cn[nH]c3CC3CCCCC32)cc1 (centres undefined)
2. O=[N+]([O-])C(=C(Nc1ccccc1)Nc1ccccc1)C(Cl)=C(Cl)Cl
3. CN(C)C(=S)/N=c1\sn(C)/c(=N\C(=S)N(C)C)n1C
4. N#CC(C#N)=C1SC(=Nc2ccccc2)C(=Nc2ccccc2)N1c1ccccc1
5. CN(C)CC[C@H](CSc1ccccc1)Nc1ccc(S(=O)(=O)NC(=O)c2ccc(N3CCN(Cc4ccccc4-c4ccc(Cl)cc4)CC3)cc2)cc1[N+](=O)[O-]
6. O=C(CC1C(=O)Nc2ccccc2S1=O)Nc1cc(Cl)ccc1Cl (centres undefined)
7. CN1CCN(c2ccc(Nc3cc(-c4cccc(-n5ccc6cc(C7CC7)cc(F)c6c5=O)c4CO)cn(C)c3=O)nc2)CC1
8. O=C1c2cc(-c3ccccc3)cnc2S(=O)(=O)N1c1ccc(Br)cc1

33.2 µM
29.4 µM
> 100 µM
60.8 µM
15.1 µM
> 100 µM
4.44 µM
> 100 µM

====

system: KM12 colon; test: NCI tumour cell line growth inhibition, 48 h; in the data active means GI50 below about 0.43 µM; inactive means the rest
Give your call using only these classes: y (active), n (inactive)

Please review the entries below; each comes with its answer.
INSERT INTO assay_data (molecule, group) VALUES
  ('COc1cc(N(CCC#N)CCC#N)ccc1/C(N=Nc1ccc(Cl)cc1)=N/NC(=O)c1cc(Br)ccc1O', 'n'),
  ('Cc1cc(N[C@@H]2CCC[C@H](Nc3ccnc4cc(Cl)ccc34)C2)nc(N2CCCCCC2)n1', 'n'),
  ('C[C@@H]1C[C@@H]([C@@H](CC2CC(=O)NC(=O)C2)OC(=O)CC(=O)c2ccccc2)C(=O)[C@@H](C)C1', 'n'),
  ('C[n+]1c(/C=C/c2c(O)ccc3ccccc23)ccc2ccccc21', 'n'),
  ('COc1cnc2c(c1)C(=O)c1c-2n(CCCNC2=NCCS2)c(=O)c2cc([N+](=O)[O-])ccc12', 'n'),
  ('CCN1CCN(c2cc(C)c3cc(NC(=O)c4ccc(OC)c(OC)c4)ccc3n2)CC1', 'n');

Query: recorded result category for O=C(NC[C@H](O)CN1CCc2ccccc2C1)c1cc(NC2COC2)ncn1 in this test
n

Queued: CN(C)C1CCN(C(=O)c2ccc(NC(=O)Nc3ccc(-c4nc(N5CCOCC5)c5cccn5n4)cc3)cc2)CC1
y

Queued: Clc1cc2c(c(CSc3nc4ccccc4n4cccc34)c1)OCOC2
n

====

tested on: M14 melanoma; assay: NCI tumour cell line growth inhibition, 48 h
attribute_measured: GI50

Each compound below has a reported value. Please supply its GI50.
1. COC(=O)c1ccc2c(c1)C(=O)c1c-2n(CCCN=[N+]=[N-])c(=O)c2cc(OC)c(OC)cc12
2. COc1ccc2nc3ccccc3c(NCc3ccc(F)cc3)c2c1
3. COc1cc(C(=O)N2CCN(C(=O)c3cc(OC)c(OC)c(OC)c3)C2=S)cc(OC)c1OC

1: > 100 µM; 2: 2.23 µM; 3: 16.8 µM

Please tell me: GI50 of CC(C)(/C=C(\C#N)C(=O)N1CCC[C@@H](n2nc(-c3ccc(Oc4ccccc4)cc3F)c3c(N)ncnc32)C1)N1CCN(C2COC2)CC1 , system M14 melanoma?
4.82 µM

====

Please provide measured GI50 for the entries that follow.
system: T-47D breast; experiment: NCI tumour cell line growth inhibition, 48 h

Sample answers from the record:
INSERT INTO results (molecule, result) VALUES
  ('N=c1c2c(-c3ccccc3)c(-c3ccccc3)n(Cc3ccccc3)c2ncn1C1CCC(O)CC1 (stereo not drawn)', '0.911 µM'),
  ('O=C(NC[C@H](O)CN1CCc2ccccc2C1)c1cc(NC2COC2)ncn1', '9.26 µM');

Proceed to the following item.
Field request: GI50 | item: COc1ccc2nc3ccccc3c(NCc3ccc(F)cc3)c2c1
3.11 µM

====

system: 786-0 renal; experiment: NCI tumour cell line growth inhibition, 48 h
attribute_measured: TGI

Sample answers from the record:
INSERT INTO assay_data (molecule, result) VALUES
  ('C=CCn1c(=O)c(C(=O)Nc2nc(C34CC5CC(CC(C5)C3)C4)cs2)c(O)c2ccccc21', '> 100 µM'),
  ('N#CNC(=NCc1ccccc1)N(Cc1ccccc1)Cc1ccccc1', '> 31.6 µM'),
  ('CC(=NNC(=S)Nc1ccccc1)c1cccc(C(C)=NNC(=S)Nc2ccccc2)n1', '35.4 µM'),
  ('N#C/C(=C\c1ccc2ccccc2c1)C(=O)c1ccccc1', '> 85.5 µM'),
  ('CCOC(=O)C1S/C(=N\C(=N)N[N+](=O)[O-])N=C1C (stereo not given)', '> 100 µM');

Each molecule below has a reported value. Please supply its TGI.
1. NC(N)=N/N=C/c1c(Cl)cccc1Cl
2. Cc1ccc(/C=N\NC2c3cc(Cl)ccc3Nc3nc(=O)[nH]c(C)c32)cc1 (stereo not given)
3. COc1cnc2c(c1)C(=O)c1c-2n(CCCNC2=NCCS2)c(=O)c2cc([N+](=O)[O-])ccc12
4. CC(C)(C)[Si](C)(C)OCC1OC(n2ccc(=O)[nH]c2=O)C(O[Si](C)(C)C(C)(C)C)/C1=C/C#N (stereo not given)
5. CC(C)C1=Cc2ccc3c(c2C(=O)C1=O)CCCC3(C)C

1. 43.7 µM
2. > 100 µM
3. 0.0925 µM
4. > 100 µM
5. 10.5 µM

====

system: NCI-H460 lung; test: NCI tumour cell line growth inhibition, 48 h
attribute_measured: log10(TGI) (log10 of the value in µM)
Answers are given as log10 of TGI in µM.

Sample answers from the record:
INSERT INTO assay_data (molecule, experimental_system, attribute_measured, numeric_readout) VALUES
  ('CC(=O)NC1C(OCc2ccccc2)OC(CO)C(O)C1OCC(=O)N[C@@H](C)C(=O)N[C@H](CCC(=O)NCCCNc1c2ccccc2nc2cccc([N+](=O)[O-])c12)C(N)=O (stereo not given in full)', 'NCI-H460 lung', 'log10(TGI)', -1.22),
  ('COC1=CC(=O)c2c(c(-c3nc(C)cs3)cn2C)C1=O', 'NCI-H460 lung', 'log10(TGI)', 0.58),
  ('CCOc1cc(/C=C2/C(C)=NN(c3cccc(Cl)c3)/C2=N/c2nc3ccccc3s2)ccc1O', 'NCI-H460 lung', 'log10(TGI)', 1.81),
  ('O=C(Cc1ccc(F)c(Cl)c1)Nc1cc(C2(C(F)(F)F)CC2)nn1CC1CCCCC1', 'NCI-H460 lung', 'log10(TGI)', 0.92),
  ('COc1ccc(-c2nc(SCC(=O)NNC(=S)Nc3ccccc3)[nH]c2-c2ccc(OC)cc2)cc1', 'NCI-H460 lung', 'log10(TGI)', 1.51),
  ('C=CCCCCC1CCC2CCC(CCCCC=C)N12 (stereo not given)', 'NCI-H460 lung', 'log10(TGI)', 1.42),
  ('S=c1c2cn[nH]c2nc2scc(-c3ccc(Cl)cc3)n12', 'NCI-H460 lung', 'log10(TGI)', 1.76),
  ('NC(N)=N/N=C/c1c(Cl)cccc1Cl', 'NCI-H460 lung', 'log10(TGI)', 1.51),
  ('CN1CCN(c2ccc(Nc3cc(-c4cccc(-n5ccc6cc(C7CC7)cc(F)c6c5=O)c4CO)cn(C)c3=O)nc2)CC1', 'NCI-H460 lung', 'log10(TGI)', 1.20);

Proceed to the following item.
Please tell me: log10(TGI) of O=C(/C(=C/c1ccc(Cl)cc1)c1ccccc1)c1ccccc1 , system NCI-H460 lung?
1.54
